experiment: Microsomal stability in human liver microsomes assessed as intrinsic clearance; format: ADME, Microsome; conditions: read-out: CLH

| test.smiles | CLint scaled, mL/min/kg |
| --- | --- |
| Nc1ncc(-c2cc(C3CC3)cc(N3C[C@@H]4C[C@H]3CO4)n2)nc1OC(F)F | 15.9 |
| Nc1ncc(-c2cc(C3CC3)nc(N3C[C@@H]4C[C@H]3CO4)c2)nc1OC(F)F | 15.8 |
